B1: Osa-1-4 twister ribozyme (parent)
chain: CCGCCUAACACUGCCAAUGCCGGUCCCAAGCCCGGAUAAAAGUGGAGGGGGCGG

Variants of: B1
TEST: self-cleavage, relative activity (ratio to wild type); higher = more cleavage; co-transcriptional
Values of self-cleavage greater than or equal to 0.3 map to label 1; values below map to label 0.

- MUTATION_NOTATION: "C26U U12A"
  ASSIGNED_CLASS: "label 0"
- MUTATION_NOTATION: "G19U G47A"
  ASSIGNED_CLASS: "label 0"
- MUTATION_NOTATION: "C9G"
  ASSIGNED_CLASS: "label 1"
- MUTATION_NOTATION: "A28U C9G"
  ASSIGNED_CLASS: "label 1"
- MUTATION_NOTATION: "G13U G49C"
  ASSIGNED_CLASS: "label 0"
- MUTATION_NOTATION: "A7G"
  ASSIGNED_CLASS: "label 1"

Reported self-cleavage at or above 0.3? A16U U37G
label 1

Reported self-cleavage at or above 0.3? C32U G48U
label 0

Reported self-cleavage at or above 0.3? G45U G53A
label 0

Reported self-cleavage at or above 0.3? C25A G50C
label 0

Reported self-cleavage at or above 0.3? C27G G19A
label 0

Reference source for all entries: the RNAGym collection of RNA variant scans (doi:10.1002/anie.201605470)
